Test system: Escherichia coli
protocol text: Synergistic antibacterial activity against wild type Escherichia coli BW25113 in presence of 0.25 times MIC of colistin incubated for 18 to 20 hrs by broth microdilution method
Type: functional
test settings: time 18-20 hrs
Could you please report measured MIC for the items listed next?
Use mg/L as the unit, but write only the number.

What does the data say about its MIC? Entry: CC(=O)NC[C@H]1CN(c2ccc(N3CCOCC3)c(F)c2)C(=O)O1 [LINEZOLID] 128

What would you report for Cc1ccc(Cn2c(-c3cccc(NS(C)(=O)=O)c3)nc3ccccc32)cc1 ? 16

What would you report for CC[C@H]1OC(=O)[C@H](C)[C@@H](O[C@H]2C[C@@](C)(OC)[C@@H](O)[C@H](C)O2)[C@H](C)[C@@H](O[C@@H]2O[C@H](C)C[C@H](N(C)C)[C@H]2O)[C@](C)(O)C[C@@H](C)C(=O)[C@H](C)[C@@H](O)[C@]1(C)O [ERYTHROMYCIN] ? 1

###

System: Escherichia coli
protocol text: Antimicrobial activity against Escherichia coli JW55031 TolC mutant assessed as reduction in microbial growth incubated for 18 to 20 hrs by broth microdilution method
Could you please report measured MIC for the items listed next?
Use µg/mL as the unit, but write only the number.

What does the data say about its MIC? Entry: CS(=O)(=O)Nc1cccc(-c2nc3ccccc3n2CC2CCCCC2)c1 16

What would you report for CS(=O)(=O)Nc1cccc(-c2nc3ccccc3n2Cc2ccc(F)cc2)c1 ? 32

What would you report for Cc1ccc(Cn2c(-c3ccc(C(F)(F)F)cc3)nc3ccccc32)cc1 ? 128

What would you report for Nc1cccc(-c2nc3ccccc3n2Cc2ccc(C(F)(F)F)cc2)c1 ? 8

What would you report for CS(=O)(=O)Nc1cccc(-c2nc3ccccc3n2Cc2ccc(Cl)cc2)c1 ? 8

What would you report for CS(=O)(=O)Nc1cccc(-c2nc3ccccc3n2Cc2ccc(Cl)cc2Cl)c1 ? 8

What would you report for CS(=O)(=O)Nc1cccc(-c2nc3ccccc3n2Cc2ccc(C(F)(F)F)cc2)c1 ? 16

What would you report for Cc1ccc(Cn2c(-c3cccc(NS(C)(=O)=O)c3)nc3ccccc32)cc1 ? 2

What would you report for CS(=O)(=O)Nc1cccc(-c2nc3ccccc3n2Cc2ccc(Br)cc2)c1 ? 4

What would you report for c1ccc(Cn2c(-c3ccccc3)nc3ccccc32)cc1 ? 16

###

Could you please report measured MIC for the items listed next?
Test system: Escherichia coli
protocol text: Antimicrobial activity against Escherichia coli JW55031 TolC mutant assessed as reduction in microbial growth incubated for 18 to 20 hrs by broth microdilution method

What does the data say about its MIC? Entry: Cc1ccc(Cn2c(-c3cccc([N+](=O)[O-])c3)nc3ccccc32)cc1 > 128 µg/mL

What would you report for Cc1ccc(Cn2c(-c3ccc(OC(F)(F)F)cc3)nc3ccccc32)cc1 ? > 128 µg/mL

What would you report for Cc1ccc(Cn2c(-c3ccccc3)nc3ccccc32)cc1 ? 8 µg/mL

What would you report for CS(=O)(=O)Nc1cccc(-c2nc3ccccc3n2Cc2ccc(OC(F)(F)F)cc2)c1 ? > 128 µg/mL

What would you report for FC(F)(F)c1ccc(Cn2c(-c3ccccc3)nc3ccccc32)cc1 ? 8 µg/mL

What would you report for CS(=O)(=O)Nc1cccc(-c2nc3ccccc3n2Cc2ccc(Cl)c(Cl)c2)c1 ? 8 µg/mL

What would you report for CS(=O)(=O)Nc1cccc(-c2nc3ccccc3n2Cc2cccc(Cl)c2)c1 ? 16 µg/mL

What would you report for Cc1ccc(Cn2c(-c3cccc(N)c3)nc3ccccc32)cc1 ? 4 µg/mL

What would you report for CS(=O)(=O)Nc1cccc(-c2nc3ccccc3n2Cc2ccc(C#N)cc2)c1 ? 64 µg/mL

What would you report for Cc1cccc(Cn2c(-c3cccc(NS(C)(=O)=O)c3)nc3ccccc32)c1 ? 16 µg/mL

What would you report for CC(=O)Nc1cccc(-c2nc3ccccc3n2Cc2ccc(C)cc2)c1 ? > 128 µg/mL

What would you report for CS(=O)(=O)Nc1cccc(-c2nc3ccccc3n2Cc2cccc3ccccc23)c1 ? > 128 µg/mL

What would you report for CC(=O)Nc1cccc(-c2nc3ccccc3n2Cc2ccc(Cl)cc2)c1 ? > 128 µg/mL

What would you report for CS(=O)(=O)Nc1cccc(-c2nc3ccccc3n2Cc2ccccc2)c1 ? 16 µg/mL

What would you report for COc1ccc(-c2nc3ccccc3n2Cc2ccc(C)cc2)cc1 ? > 128 µg/mL

What would you report for CC(=O)NC[C@H]1CN(c2ccc(N3CCOCC3)c(F)c2)C(=O)O1 ? 8 µg/mL

What would you report for Nc1cccc(-c2nc3ccccc3n2Cc2ccc(Cl)c(Cl)c2)c1 ? 4 µg/mL

What would you report for Cc1ccc(Cn2c(-c3cccc(C#N)c3)nc3ccccc32)cc1 ? 16 µg/mL

What would you report for Cc1ccc(Cn2c(-c3ccc(Cl)cc3)nc3ccccc32)cc1 ? > 128 µg/mL

What would you report for Cc1ccc(Cn2c(-c3ccc(C#N)cc3)nc3ccccc32)cc1 ? > 128 µg/mL

What would you report for Cc1ccc(Cn2c(-c3ccc(NS(C)(=O)=O)cc3)nc3ccccc32)cc1 ? > 128 µg/mL

What would you report for CS(=O)(=O)Nc1cccc(-c2nc3ccccc3n2Cc2cccc(F)c2)c1 ? 64 µg/mL
